system: Human immunodeficiency virus 1; experiment: Antiviral activity against HIV1 NL4-3 infected in human MT4 cells assessed as p24 antigen level after 4 days by ELISA; type: functional, organism-based; conditions: Human immunodeficiency virus 1, NL4-3, MT4, 96 h
pIC50: −log10 of the molar value.
Reported pIC50 values follow for various compounds

| Smiles input | pIC50 |
| --- | --- |
| C=C(C)[C@@H]1CC[C@]2(C(=O)N3CCC(CCCC(=O)NCCN4CCOCC4)CC3)CC[C@]3(C)[C@H](CC[C@@H]4[C@@]5(C)CC[C@H](OC(=O)CC(C)(C)C(=O)O)C(C)(C)[C@@H]5CC[C@]43C)[C@@H]12 | 7.46 |
| C=C(C)[C@@H]1CC[C@]2(C(=O)O)CC[C@]3(C)[C@H](CC[C@@H]4[C@@]5(C)CC[C@H](OC(=O)CC(C)(C)C(=O)O)C(C)(C)[C@@H]5CC[C@]43C)[C@@H]12 | 7.06 |
| C=C(C)[C@@H]1CC[C@]2(C(=O)OCCC)CC[C@]3(C)[C@H](CC[C@@H]4[C@@]5(C)CC[C@H](OC(=O)CC(C)(C)C(=O)O)C(C)(C)[C@@H]5CC[C@]43C)[C@@H]12 | 7.06 |
| C=C(C)[C@@H]1CC[C@]2(C(=O)N3CCN(CCCCC(=O)O)CC3)CC[C@]3(C)[C@H](CC[C@@H]4[C@@]5(C)CC[C@H](OC(=O)CC(C)(C)C(=O)O)C(C)(C)[C@@H]5CC[C@]43C)[C@@H]12 | 8.23 |

* * *

test system: Human immunodeficiency virus 1; assay: Antiviral activity against HIV1 NL4-3 infected in human MT4 cells assessed as p24 antigen level after 4 days by ELISA; format: functional, organism-based; settings: Human immunodeficiency virus 1, NL4-3, MT4, 96 h
Reported IC50 values follow for various compounds

| Smiles input | Test system | IC50 |
| --- | --- | --- |
| C=C(C)[C@@H]1CC[C@]2(C(=O)OCCOCCOCCOCCOC(=O)CC(C)(C)C(=O)O)CC[C@]3(C)[C@H](CC[C@@H]4[C@@]5(C)CC[C@H](OC(=O)CC(C)(C)C(=O)O)C(C)(C)[C@@H]5CC[C@]43C)[C@@H]12 | Human immunodeficiency virus 1 | 79 nM |
| C#CCOC(=O)[C@]12CC[C@@H](C(=C)C)[C@@H]1[C@H]1CC[C@@H]3[C@@]4(C)CC[C@H](OC(=O)CC(C)(C)C(=O)O)C(C)(C)[C@@H]4CC[C@@]3(C)[C@]1(C)CC2 | Human immunodeficiency virus 1 | 67 nM |

* * *

assay: Therapeutic index, ratio of CC50 for human MT4 cells to IC50 for HIV-1 NL4-3; assay type: cell-based; conditions: read-out: Ratio CC50/IC50
Experimental readout: selectivity ratio

| Smiles input | Experimental readout | Relation sign | Measured number |
| --- | --- | --- | --- |
| C=C(C)[C@@H]1CC[C@]2(C(=O)OCCCCCC(=O)OCC)CC[C@]3(C)[C@H](CC[C@@H]4[C@@]5(C)CC[C@H](OC(=O)CC(C)(C)C(=O)O)C(C)(C)[C@@H]5CC[C@]43C)[C@@H]12 | selectivity ratio | = | 154 |
| C=C(C)[C@@H]1CC[C@]2(C(=O)N3CCC(CCCC(=O)NC)CC3)CC[C@]3(C)[C@H](CC[C@@H]4[C@@]5(C)CC[C@H](OC(=O)CC(C)(C)C(=O)O)C(C)(C)[C@@H]5CC[C@]43C)[C@@H]12 | selectivity ratio | > | 55.5 |
| C=C(C)[C@@H]1CC[C@]2(C(=O)N3CCN(CCCCC(=O)O)CC3)CC[C@]3(C)[C@H](CC[C@@H]4[C@@]5(C)CC[C@H](OC(=O)CC(C)(C)C(=O)O)C(C)(C)[C@@H]5CC[C@]43C)[C@@H]12 | selectivity ratio | = | 2240 |
| C#CCOC(=O)[C@]12CC[C@@H](C(=C)C)[C@@H]1[C@H]1CC[C@@H]3[C@@]4(C)CC[C@H](OC(=O)CC(C)(C)C(=O)O)C(C)(C)[C@@H]4CC[C@@]3(C)[C@]1(C)CC2 | selectivity ratio | = | 226 |
| C=C(C)[C@@H]1CC[C@]2(C(=O)N3CCC(CCCC(=O)NCCCN4CCOCC4)CC3)CC[C@]3(C)[C@H](CC[C@@H]4[C@@]5(C)CC[C@H](OC(=O)CC(C)(C)C(=O)O)C(C)(C)[C@@H]5CC[C@]43C)[C@@H]12 | selectivity ratio | = | 321 |
| C=C(C)[C@@H]1CC[C@]2(C(=O)N3CCC(CCCC(=O)NCCN4CCOCC4)CC3)CC[C@]3(C)[C@H](CC[C@@H]4[C@@]5(C)CC[C@H](OC(=O)CC(C)(C)C(=O)O)C(C)(C)[C@@H]5CC[C@]43C)[C@@H]12 | selectivity ratio | = | 286 |
| C=C(C)[C@@H]1CC[C@]2(C(=O)N3CCN(CCCC(=O)O)CC3)CC[C@]3(C)[C@H](CC[C@@H]4[C@@]5(C)CC[C@H](OC(=O)CC(C)(C)C(=O)O)C(C)(C)[C@@H]5CC[C@]43C)[C@@H]12 | selectivity ratio | = | 1180 |
| C=C(C)[C@@H]1CC[C@]2(C(=O)OCCCCCC)CC[C@]3(C)[C@H](CC[C@@H]4[C@@]5(C)CC[C@H](OC(=O)CC(C)(C)C(=O)O)C(C)(C)[C@@H]5CC[C@]43C)[C@@H]12 | selectivity ratio | = | 8.3 |
| C=C(C)[C@@H]1CC[C@]2(C(=O)O)CC[C@]3(C)[C@H](CC[C@@H]4[C@@]5(C)CC[C@H](OC(=O)CC(C)(C)C(=O)O)C(C)(C)[C@@H]5CC[C@]43C)[C@@H]12 | selectivity ratio | = | 171 |
| C=C(C)[C@@H]1CC[C@]2(C(=O)OCCOCCOCCOCCOC(=O)CC(C)(C)C(=O)O)CC[C@]3(C)[C@H](CC[C@@H]4[C@@]5(C)CC[C@H](OC(=O)CC(C)(C)C(=O)O)C(C)(C)[C@@H]5CC[C@]43C)[C@@H]12 | selectivity ratio | = | 111 |
| C=C(C)[C@@H]1CC[C@]2(C(=O)OCCC)CC[C@]3(C)[C@H](CC[C@@H]4[C@@]5(C)CC[C@H](OC(=O)CC(C)(C)C(=O)O)C(C)(C)[C@@H]5CC[C@]43C)[C@@H]12 | selectivity ratio | = | 118 |
| C=C(C)[C@@H]1CC[C@]2(C(=O)ON3C(=O)CCC3=O)CC[C@]3(C)[C@H](CC[C@@H]4[C@@]5(C)CC[C@H](OC(=O)CC(C)(C)C(=O)O)C(C)(C)[C@@H]5CC[C@]43C)[C@@H]12 | selectivity ratio | = | 86.2 |

* * *

system: MT4; assay: Cytotoxicity against human MT4 cells after 2 days; type: cell-based; conditions: mt4, 48 h
Reported CC50 values follow for various compounds

| Smiles input | Test system | CC50, µM |
| --- | --- | --- |
| C=C(C)[C@@H]1CC[C@]2(C(=O)N3CCN(CCCCC(=O)O)CC3)CC[C@]3(C)[C@H](CC[C@@H]4[C@@]5(C)CC[C@H](OC(=O)CC(C)(C)C(=O)O)C(C)(C)[C@@H]5CC[C@]43C)[C@@H]12 | MT4 | 13.2 |
| C=C(C)[C@@H]1CC[C@]2(C(=O)OCOC)CC[C@]3(C)[C@H](CC[C@@H]4[C@@]5(C)CC[C@H](OC(=O)CC(C)(C)C(=O)O)C(C)(C)[C@@H]5CC[C@]43C)[C@@H]12 | MT4 | 12.4 |
| C=C(C)[C@@H]1CC[C@]2(C(=O)OCOCCOC)CC[C@]3(C)[C@H](CC[C@@H]4[C@@]5(C)CC[C@H](OC(=O)CC(C)(C)C(=O)O)C(C)(C)[C@@H]5CC[C@]43C)[C@@H]12 | MT4 | 12.1 |

* * *

assay: Therapeutic index, ratio of CC50 for human MT4 cells to IC50 for HIV-1 NL4-3; assay type: cell-based; details: read-out: Ratio CC50/IC50
Experimental readout: selectivity ratio

| Smiles input | Experimental readout | Measured number |
| --- | --- | --- |
| C=C(C)[C@@H]1CC[C@]2(C(=O)N3CCC(CCCC(=O)N4CCOCC4)CC3)CC[C@]3(C)[C@H](CC[C@@H]4[C@@]5(C)CC[C@H](OC(=O)CC(C)(C)C(=O)O)C(C)(C)[C@@H]5CC[C@]43C)[C@@H]12 | selectivity ratio | 156 |
| C=C(C)[C@@H]1CC[C@]2(C(=O)OCOC)CC[C@]3(C)[C@H](CC[C@@H]4[C@@]5(C)CC[C@H](OC(=O)CC(C)(C)C(=O)O)C(C)(C)[C@@H]5CC[C@]43C)[C@@H]12 | selectivity ratio | 70.9 |
| C=C(C)[C@@H]1CC[C@]2(C(=O)OCc3cn([C@H]4C[C@H](n5cc(C)c(=O)[nH]c5=O)O[C@@H]4CO)nn3)CC[C@]3(C)[C@H](CC[C@@H]4[C@@]5(C)CC[C@H](OC(=O)CC(C)(C)C(=O)O)C(C)(C)[C@@H]5CC[C@]43C)[C@@H]12 | selectivity ratio | 101 |
| C=C(C)[C@@H]1CC[C@]2(C(=O)OCOCCOC)CC[C@]3(C)[C@H](CC[C@@H]4[C@@]5(C)CC[C@H](OC(=O)CC(C)(C)C(=O)O)C(C)(C)[C@@H]5CC[C@]43C)[C@@H]12 | selectivity ratio | 261 |
